Cited source for all entries: the supplement of paper PMC10567573

B1: KLHDC10 (parent)
chain: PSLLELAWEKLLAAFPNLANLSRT

variants of: B1; assay: protein stability index of a GFP-peptide fusion (GPS, HEK-293T) (PSI 1-6); higher = more stable; settings: c terminus: a fixed tail appended;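 note: lentivirally expressed fusions sorted by FACS into six bins by GFP to DsRed ratio, PSI derived from sequencing read proportions per bin multiplied by bin number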
// class 0 strictly below 2 in protein stability index; class 1 otherwise

# MUTATION ANNOTATION, LABEL VALUE
records = [
    ("L6K", "class 1"),
    ("L11S", "class 1"),
    ("S22P", "class 1"),
    ("K10N", "class 0"),
    ("L11G", "class 0"),
    ("L6M", "class 1"),
    ("A19I", "class 1"),
    ("N20D", "class 0"),
    ("L6P", "class 0"),
    ("L21A", "class 1"),
    ("N17K", "class 0"),
    ("T24K", "class 1"),
    ("L3S", "class 0"),
    ("E5S", "class 1"),
    ("K10Y", "class 0"),
    ("A14E", "class 1"),
    ("A14R", "class 0"),
    ("K10L", "class 1"),
    ("L11D", "class 1"),
    ("S2V", "class 0"),
    ("A7H", "class 0"),
    ("E9Q", "class 1"),
    ("L3V", "class 0"),
    ("L12H", "class 1"),
    ("L11F", "class 1"),
    ("A7S", "class 1"),
    ("N17E", "class 0"),
    ("A7W", "class 0"),
    ("W8L", "class 0"),
    ("L6V", "class 1"),
    ("L21S", "class 1"),
    ("E9F", "class 0"),
    ("S22Y", "class 0"),
    ("A19N", "class 1"),
    ("L6W", "class 1"),
    ("L4F", "class 1"),
    ("E9L", "class 1"),
    ("L11I", "class 1"),
    ("L18C", "class 1"),
    ("L3D", "class 1"),
    ("P1Y", "class 0"),
    ("N20V", "class 1"),
    ("P16D", "class 1"),
    ("A14C", "class 1"),
    ("R23A", "class 0"),
    ("A7P", "class 0"),
    ("N17V", "class 1"),
    ("L4Q", "class 1"),
    ("L6C", "class 0"),
    ("S22T", "class 1"),
    ("L12G", "class 1"),
    ("A7N", "class 1"),
    ("A7E", "class 1"),
]
